# experiment description: CCK-8 cell viability of THP-1 cells after 48 h compound treatment in HaCaT/THP-1 co-culture
# Format: cell-based, human
# assay setup: human, 31.25 μg/mL, 48 h, THP-1, individual replicate values; read-out: Cell viability
# Description: The co-culture system was set up according to the following described method. […] THP-1 cells were collected, centrifuged, and re-suspended in fresh RPMI-1640 medium supplemented with 10% FBS at 2 × 10^6 cells/mL. […] After 48 h of treatment, the treated cells were collected 100 μL cells per well. […] THP-1 cell viability was determined using standard calculation methods. The cytotoxicity of 15 test compounds listed in Table 1 was assessed using THP-1 cells across a concentration range of 1,000 to 3.9 μg/mL. […]
readout type: viability at 48 h, 31.25 μg/mL (%)
Lab book: enter the figure in %, no units written.

O=[N+]([O-])c1ccc(Cl)c([N+](=O)[O-])c1 has a reported viability at 48 h, 31.25 μg/mL of 7.1

====

# experiment description: CCK-8 cell viability of THP-1 cells after 48 h compound treatment in HaCaT/THP-1 co-culture
# Format: cell-based, human
# assay setup: human, THP-1 cells in co-culture with HaCaT cells, 500 μg/mL, 48 h, THP-1, individual replicate values
# Method: The co-culture system was set up according to the following described method. […] THP-1 cells were collected, centrifuged, and re-suspended in fresh RPMI-1640 medium supplemented with 10% FBS at 2 × 10^6 cells/mL. […] After 48 h of treatment, the treated cells were collected 100 μL cells per well. […] THP-1 cell viability was determined using standard calculation methods. The cytotoxicity of 15 test compounds listed in Table 1 was assessed using THP-1 cells across a concentration range of 1,000 to 3.9 μg/mL. […]
readout type: viability at 48 h, 500 μg/mL (%)
Hi! Could you send only the number? It should be in %, unit omitted.

Observe how each entry below is paired with its result.
{"compound": "O=c1c(-c2ccccc2)c1-c1ccccc1", "reading": 30.3}
{"compound": "N#CCCC(Br)(C#N)CBr (stereo not drawn)", "reading": 12.9}

Please turn your attention to the following entry.
Form field viability at 48 h, 500 μg/mL, entry Oc1cccc(O)c1 : 56.3

====

# experiment description: CCK-8 cell viability of THP-1 cells after 48 h compound treatment in HaCaT/THP-1 co-culture
# Assay type: cell-based, human
# assay setup: human, THP-1 cells in co-culture with HaCaT cells, 15.625 μg/mL, 48 h, THP-1, individual replicate values
readout type: viability at 48 h, 15.625 μg/mL

Solved entries (count: 5):
{"molecule": "CC(C)(C)c1cc(O)ccc1O [THBQ, Tert-butylhydroquinone]", "viability at 48 h, 15.625 μg/mL": "104%"}
{"molecule": "O=CCc1ccccc1 [phenylacetaldehyde, Phenylacetaldehyde]", "viability at 48 h, 15.625 μg/mL": "74.2%"}
{"molecule": "CC(C)CCCC(C)CCCC(C)CCCCC(C)CCCC(C)CCCC(C)C (stereo not shown) [squalane, Squalane]", "viability at 48 h, 15.625 μg/mL": "78.7%"}
{"molecule": "Oc1cccc(O)c1 [resorcinol, Resorcinol]", "viability at 48 h, 15.625 μg/mL": "86.8%"}
{"molecule": "OCC(O)CO [glycerol, Glycerol]", "viability at 48 h, 15.625 μg/mL": "93.7%"}

Lab note: measured viability at 48 h, 15.625 μg/mL of N#CCCC(Br)(C#N)CBr (stereo not shown) [bromoml, 1,2-dibromo-2,4-dicyanobutane] was 13.3%

The reported value for Sc1nc2ccccc2s1 [2-mercaptobenzothiazole] in terms of viability at 48 h, 15.625 μg/mL is 63.3%

====

# experiment description: CCK-8 cell viability of THP-1 cells after 48 h compound treatment in HaCaT/THP-1 co-culture
# Format: cell-based, human
# assay setup: human, 62.5 μg/mL, 48 h, THP-1, individual replicate values
Recorded viability at 48 h, 62.5 μg/mL for the following molecules
Numbers only; they are read as %.

{"structure string": "C=CCc1ccc(O)c(OC)c1", "value units": "%", "viability at 48 h, 62.5 μg/mL": 96.6}

Note to self: viability at 48 h, 62.5 μg/mL recorded for O=[N+]([O-])c1ccc(Cl)c([N+](=O)[O-])c1 was 7.52

====

Catalogue of molecules with associated viability at 48 h, 7.8125 μg/mL
# experiment description: CCK-8 cell viability of THP-1 cells after 48 h compound treatment in HaCaT/THP-1 co-culture
# Type: cell-based, human
# assay setup: human, 7.8125 μg/mL, 48 h, THP-1, individual replicate values
# unit: % | format: bare number

{"structure string": "O=[N+]([O-])c1ccc(Cl)c([N+](=O)[O-])c1", "reading": 6.82}

# input for lookup
For this molecule ( C=CCc1ccc(O)c(OC)c1 ), measured viability at 48 h, 7.8125 μg/mL is 89.2

====

# experiment description: CCK-8 cell viability of THP-1 cells after 48 h compound treatment in HaCaT/THP-1 co-culture
# Format: cell-based, human
# assay setup: human, THP-1 cells in co-culture with HaCaT cells, 31.25 μg/mL, 48 h, THP-1, individual replicate values; read-out: Cell viability
readout type: viability at 48 h, 31.25 μg/mL
Write the quantity with the unit trailing the number.

{"molecule": "O=c1c(-c2ccccc2)c1-c1ccccc1", "viability at 48 h, 31.25 μg/mL": "25.4%"}
{"molecule": "O=CCc1ccccc1", "viability at 48 h, 31.25 μg/mL": "14.8%"}

Let us examine a further case.
// viability at 48 h, 31.25 μg/mL lookup, molecule = CC(C)CCCC(C)CCCC(C)CCCCC(C)CCCC(C)CCCC(C)C (stereo not drawn) , result: 89.3%

====

# System: THP-1 cells
# experiment description: CCK-8 cell viability of THP-1 cells after 48 h compound treatment in HaCaT/THP-1 co-culture
# Type: cell-based, human
# assay setup: 3.90625 μg/mL, 48 h, THP-1, individual replicate values
Reported Cell viability by item:
Please respond with the number in % and leave the unit unwritten.

{"compound": "N#CCCC(Br)(C#N)CBr (stereo not drawn)", "Cell viability (%)": 108.767}

For record C=CCc1ccc(O)c(OC)c1 the listed Cell viability is 95.5106

O=[N+]([O-])c1ccc(Cl)c([N+](=O)[O-])c1 yielded Cell viability of 71.1839

Lab note: measured Cell viability of O=CCc1ccccc1 was 77.9774

// Oc1cccc(O)c1 : Cell viability value = 80.4798

Record CC(C)(C)c1cc(O)ccc1O [THBQ, Tert-butylhydroquinone] . Reported Cell viability: 101.759

So for Sc1nc2ccccc2s1 , the logged Cell viability turned out to be 80.7937

For CC(C)CCCC(C)CCCC(C)CCCCC(C)CCCC(C)CCCC(C)C (stereo not drawn) the compound record lists Cell viability as 88.2476

// recorded Cell viability for O=c1c(-c2ccccc2)c1-c1ccccc1 : 42.1135

====

# experiment description: CCK-8 cell viability of THP-1 cells after 48 h compound treatment in HaCaT/THP-1 co-culture
# Type: cell-based, human
# assay setup: human, THP-1 cells in co-culture with HaCaT cells, 125 μg/mL, 48 h, THP-1, individual replicate values
readout type: viability at 48 h, 125 μg/mL (%)
Numeric answer only, unit % assumed.

{"compound": "Sc1nc2ccccc2s1 [2-mercaptobenzothiazole]", "value units": "%", "viability at 48 h, 125 μg/mL": 34.2}
{"compound": "OCC(O)CO [glycerol, Glycerol]", "value units": "%", "viability at 48 h, 125 μg/mL": 90.6}
{"compound": "O=CCc1ccccc1 [phenylacetaldehyde, Phenylacetaldehyde]", "value units": "%", "viability at 48 h, 125 μg/mL": 17}
{"compound": "N#CCCC(Br)(C#N)CBr (centres unmarked) [bromoml, 1,2-dibromo-2,4-dicyanobutane]", "value units": "%", "viability at 48 h, 125 μg/mL": 12.2}
{"compound": "CC(C)CCCC(C)CCCC(C)CCCCC(C)CCCC(C)CCCC(C)C (centres unmarked) [squalane, Squalane]", "value units": "%", "viability at 48 h, 125 μg/mL": 98}

The reported value for CC(C)(C)c1cc(O)ccc1O [THBQ, Tert-butylhydroquinone] in terms of viability at 48 h, 125 μg/mL is 29.9

The compound listed as O=c1c(-c2ccccc2)c1-c1ccccc1 [diphenylcyclopropenone, Diphenylcyclopropenone] has a reported viability at 48 h, 125 μg/mL of 28.2

The value of viability at 48 h, 125 μg/mL measured for the compound Oc1cccc(O)c1 [resorcinol, Resorcinol] turned out to be 66.2

FYI, the data here is from paper PMC11648681.
